Biological target: Recombinant ROCK2 (amino acids 5-554) (Homo sapiens, UniProt O75116)
Construct: ROCK2 (amino acids 5-554); by word order, ROCK2 from SignalChem
Sequence (O75116 5-554): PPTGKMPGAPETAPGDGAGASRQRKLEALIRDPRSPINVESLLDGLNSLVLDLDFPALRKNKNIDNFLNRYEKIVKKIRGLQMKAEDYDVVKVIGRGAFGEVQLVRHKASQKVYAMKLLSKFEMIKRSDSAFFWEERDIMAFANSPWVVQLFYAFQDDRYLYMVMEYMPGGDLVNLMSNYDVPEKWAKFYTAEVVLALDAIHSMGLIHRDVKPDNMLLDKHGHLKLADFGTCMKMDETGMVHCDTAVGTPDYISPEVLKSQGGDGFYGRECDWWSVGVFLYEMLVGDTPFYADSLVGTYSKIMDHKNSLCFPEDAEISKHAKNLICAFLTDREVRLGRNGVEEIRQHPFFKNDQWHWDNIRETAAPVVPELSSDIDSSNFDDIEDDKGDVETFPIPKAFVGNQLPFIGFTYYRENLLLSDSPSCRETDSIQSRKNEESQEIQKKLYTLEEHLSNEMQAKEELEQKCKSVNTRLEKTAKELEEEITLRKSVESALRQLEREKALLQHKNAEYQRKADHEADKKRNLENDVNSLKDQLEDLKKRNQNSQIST
Test: ROCK inhibition assay, LANCE Ultra TR-FRET kinase assay (ROCK2)
Conditions: 4 μM ATP, 50 nM ULight-CREBtide substrate
recorded.metric: IC50

The examples below pair each entry with its known result.
compound="Nc1cc(-c2ccc3c(=O)n(Cc4cccc(C(=O)NC5CCOCC5)c4)ccc3c2)ccn1 [Compound 194]" recorded_result="0.01 to 0.1 µM"
compound="[2H]C([2H])([2H])NC(=O)c1cccc(Cn2cnc3cc(-c4cn[nH]c4C(F)(F)F)ccc3c2=O)c1 [Compound 368]" recorded_result="< 0.01 µM"

// IC50 lookup, compound = C[C@H](c1cccc(C(=O)NCC2CCN(C)CC2)c1)n1cnc2cc(-c3cn[nH]c3C(F)F)ccc2c1=O [Compound 461] , result: < 0.01 µM

According to the records, this compound Cn1nccc1-c1ccc2c(=O)n(Cc3cccc(C(=O)NCC4COC4)c3)ccc2c1 [Compound 111] displays IC50 of < 0.01 µM

compound CNC(=O)c1cccc(C(C)n2cc(CCO)c3cc(-c4cn[nH]c4Cl)ccc3c2=O)c1 (stereo not shown) [Compound 551] , IC50 observed: < 0.01 µM

The measured IC50 associated with CO[C@H]1CC[C@@H](NC(=O)c2cc(F)cc(Cn3ccc4cc(-c5conc5C)ccc4c3=O)c2)CC1 [Compound 142] reads 0.1 to 0.5 µM

Lab note: CNC(=O)c1cccc(Cn2ccc3cc(-c4cn[nH]c4C(F)F)ncc3c2=O)c1 [Compound 237] gave IC50 of < 0.01 µM

---

Target: Recombinant ROCK1 (amino acids 1-477) (Homo sapiens, UniProt Q13464)
Construct: Recombinant ROCK1 (amino acids 1-477); by word order, ROCK1 from Carna Biosciences
Sequence (Q13464 1-477): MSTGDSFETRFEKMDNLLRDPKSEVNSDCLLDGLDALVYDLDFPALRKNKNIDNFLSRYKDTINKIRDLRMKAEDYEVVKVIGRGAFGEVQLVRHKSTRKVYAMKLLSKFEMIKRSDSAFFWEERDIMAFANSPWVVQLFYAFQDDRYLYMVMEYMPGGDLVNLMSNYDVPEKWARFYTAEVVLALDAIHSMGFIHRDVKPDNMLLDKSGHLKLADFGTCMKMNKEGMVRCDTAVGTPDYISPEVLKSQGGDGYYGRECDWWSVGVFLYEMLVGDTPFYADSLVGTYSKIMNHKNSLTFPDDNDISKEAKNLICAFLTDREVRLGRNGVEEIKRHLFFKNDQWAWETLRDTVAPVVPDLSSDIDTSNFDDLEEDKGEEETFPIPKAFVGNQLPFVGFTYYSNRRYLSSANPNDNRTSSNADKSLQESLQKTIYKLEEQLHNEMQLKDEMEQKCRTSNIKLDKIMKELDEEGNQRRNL
Assay: ROCK inhibition assay, LANCE Ultra TR-FRET kinase assay (ROCK1)
Details: 1 μM ATP, 50 nM ULight-CREBtide substrate
pIC50: −log10 of the molar value.
// reported pIC50 per item

Example molecules with recorded pIC50:
smiles_structure=CNC(=O)c1cccc(Cn2cc(CCO)c3cc(-c4conc4C)ccc3c2=O)c1 recorded_result="6.30 to 7.00"
smiles_structure=Cn1nccc1-c1ccc2c(=O)n(Cc3cc(F)cc(C(=O)NC4CCNCC4)c3)ccc2c1 recorded_result="7.00 to 7.96"

Test item [2H]C([2H])([2H])NC(=O)c1cccc(Cn2ccc3cc(-c4conc4C)ccc3c2=O)c1 ; Recombinant ROCK1 (amino acids 1-477) (Homo sapiens, UniProt Q13464); reported pIC50 was 7.00 to 7.96

Bench note, Recombinant ROCK1 (amino acids 1-477) (Homo sapiens, UniProt Q13464): entry CNC(=O)c1cccc(Cn2cc(CCN(C)C)c3cc(-c4cn[nH]c4C(F)(F)F)ccc3c2=O)c1 , its pIC50 = > 8.00

---

Target: Recombinant ROCK1 (amino acids 1-477) (Homo sapiens)
Construct: Recombinant ROCK1 (amino acids 1-477); by word order, ROCK1 from Carna Biosciences
Experiment: ROCK inhibition assay, LANCE Ultra TR-FRET kinase assay (ROCK1)
Settings: 1 μM ATP, 50 nM ULight-CREBtide substrate
recorded.metric: IC50

Consider the reported IC50 for these molecules:
molecule="CNC(=O)c1cccc([C@@H](C)n2cnc3cc(-c4cn[nH]c4F)ncc3c2=O)c1 [Compound 570]" recorded_result="< 10 nM"
molecule="Cn1nccc1-c1ccc2c(=O)n(Cc3cccc(C(=O)N[C@H]4CC[C@H](O)CC4)c3)ccc2c1 [Compound 115]" recorded_result="101 to 500 nM"
molecule="Cn1nccc1-c1ccc2c(=O)n(Cc3cccc(C(=O)N[C@H]4CC[C@@H](O)CC4)c3)cnc2c1 [Compound 429]" recorded_result="11 to 100 nM"

// IC50 value for Cn1nccc1-c1ccc2c(=O)n(Cc3cccc(C(=O)NCc4ccc(F)nc4)c3)ccc2c1 [Compound 114] : 11 to 100 nM

IC50 reported for this molecule CNC(=O)c1cccc(Cn2ccc3cc(-c4cc[nH]c4C)ncc3c2=O)c1 [Compound 231] : 11 to 100 nM
